# Test system: MS2 coat protein
# procedureDetails: apparent KD of MS2 coat protein; higher = weaker reporter binding
# statedConditions: Eterna round: R107; input ligand: arginine 13.2 mM
Note to self: class labels come from recorded apparent KD of MS2 coat protein, ranges listed here: label 0 = under 20 nM, label 1 = from 20 nM up to 30 nM, label 2 = 30 nM and over

| sequenceContent | category |
| --- | --- |
| UCAAGUGAACCAUGGAAACAUUCAAUAGAUACCAGCAUUAAAACCUGCCCUUGGCAGCUAUGAACAUGAGGAUCACCCAUGUGAA [theeternabot_exclusion_MS2_Theo_A_21] | label 0 |
| AGGUGGGUCUGAAGGAGCGCGAUAACAUGAGGAUCACCCAUGUUAAAUGGUACAUGAUACUCGCAGGUAGGUCGCAGUAAAACCA [Same State Arginine B GF 12] | label 1 |
| GCUGUGAAGUCGGCCGCCACUGGUUAGUUUAACCUCAUGUAACAUGAGGAUCACCCAUGUAAUGUCAGGACCGGGACAACAGCAA [JR_ExcTryptoB_Sub016] | label 2 |
| CUCGGAACAAUCGAUACCAGUUCUCAUGGAUUGCAGCAGUACAUGAGGAUCACCCAUGUAAACCCUUGGCAGCGAAGAACAAGAC [theeternabot_exclusion_MS2_Theo_B_18] | label 1 |
| CAGAGACAUGAGGAUCACCCAUGUUGAGAUACCAGCUUGGUAUCGAGCCCUUGGCAGCUCGCCCAUCGUCUAUAUCAGCCUGAGC [theeternabot_sameState_MS2_Theo_A_40] | label 0 |
| ACGCUGAUUGAUUACAAUCAGCGAAAAGAUACCAGUGGGUAAUCCCACCCUUGGCAGCUUAAACAUGAGGAUCACCCAUGUGGUA [TheoAS 14 #MS2Right #BothOrNeither #AlternativeMS2] | label 2 |
| AGCACUGUGGCGGCCGCCACUACAUAUAGGGUGGUCAGGCCCAUAAUACAUGAGGAUCACCCAUGUAGGACCGGGCCUCAGUGCA [Omei Trp Exc B A v13] | label 0 |
| GAUCCACAUGAGGAUCACCCAUGUGAGGAUACCAGUACCAGAUCCUACCCUUGGCAGCCUAACCUUCAUUCAACACGAAUAAGAA [theeternabot_sameState_MS2_Theo_A_20] | label 0 |
| AUCCACAGCCGAAGGAGCGCAGUAGGAUGACAUGAGGAUCACCCAUGUGUGUGAUGUGGAUUGCAGGUAGGUCGCGGAGUGGAUU [Exclusion - Arginine B (Freestyle 9)] | label 2 |

* * *

# System: MS2 coat protein
# procedureDetails: apparent KD of MS2 coat protein; higher = weaker reporter binding
# statedConditions: Eterna round: R107; input ligand: tryptophan 2.4 mM
observedProperty: apparent KD of MS2 coat protein (µM)

| sequenceContent | tgt | observedProperty | observedValue |
| --- | --- | --- | --- |
| AGCUCGCGUCCUCAAGCGUCAAAGACGCGUCGAGGACCGGUACGGCCGCCACUCGACCUGAGGAUCACCCAGGUUUAAGCGAGCA [TrypAX 6 #SwitchBubble #AlternativeMS2 #MS2Late #CuTurnoff] | MS2 coat protein | apparent KD of MS2 coat protein | 0.115 |
| UAUAUAUAACAUGAGGAUCACCCAUGUAAACGAGGACCGGUACGGCCGCCACUCGGCCGGCAAGGGAGAGGACGGGAAACCGUCG [ETA NP+V+V2 #26] | MS2 coat protein | apparent KD of MS2 coat protein | 0.0244 |
| GGUUGAAACUGAAGGAGCGAGAUCACAAGAUUGGGUCUAACAUGAGGAUCACCCAUGUAAUCUCAGGUAGGUCGCAGUGACCAAA [Exclusion Arginine B GF 13] | MS2 coat protein | apparent KD of MS2 coat protein | 0.0381 |

* * *

Reported apparent KD of MS2 coat protein is given for each of the following sequences.
# Test system: MS2 coat protein
# procedureDetails: apparent KD of MS2 coat protein; higher = weaker reporter binding
# statedConditions: Eterna round: R107; input ligand: theophylline 20 uM
observedProperty: apparent KD of MS2 coat protein (nM)

| sequenceContent | unitDescriptor | observedValue |
| --- | --- | --- |
| ACAUGAGGAUCACCCAUGUAAUGGCACGAUACCAGCUGAUCCCGUGGCCCUUGGCAGCGUCCGGUGUGGUCCGCCGGGUUGGAGC [DDDMULLIN] | nM | 39.5 |
| ACAUGAGGAUCACCCAUGUAGUAGUCAGAAGGAGCGUGGAAUAACACAGGUAGGUCGCUGAUGUUUGGUUAAAUGUAAUCGUGUA [#30 Same State - Arginine A] | nM | 27.6 |
| AGACAUGUAAGAUAAAUGACUUAUACAGAUACCAGACUGUCUAAUGUCCCUUGGCAGCUGCAUAACAUGAGGAUCACCCAUGUAA [JR_ExcTheophyA_Sub010] | nM | 24.2 |
| UACUUGCUGACGGCCGCCACUAGAACAUGAGGAUCACCCAUGUACCCGGUCCUAAUCCUCAUGACUAGGACCGGGUCAGCAAGAU [(Trp1)-(Ms2)-(T)'-(M)'-(Trp2)_Design2] | nM | 42.1 |
| GGCUAGUGCAUCGAUACCAGCUACAUGAGGAUCACCCAUGUAGGAAGGGUGGUACUCGAUAGCCCUUGGCAGCGAACACCUCCGG [Quoran] | nM | 35.7 |
| AGGUGGCGCGGAAGGAGCGAGUUUGCCUAUUACAUGAGGAUCACCCAUGUGGGUAAUGGGACUCAGGUAGGUCGCCGUUGUCGCU [Same State Arginine B GF 27] | nM | 91.5 |
| UAAUGCAGGUCGGCCGCCACUACAAACAUGAGGAUCACCCAUGUAGUUACUGGGUGAAGUGGCAGUAGGACCGGGACCUGCAUAA [Trp-Ms2-T'-M'-T''_Design1] | nM | 602 |
| CGUGGUGGGACGGAUACCAGCCACCGCGGCAACGCAACAUGAGGAUCACCCAUGUUGGGUGGCCCUUGGCAGCUGUCCUGCGACG [#1 Same State - Theophylline B Attempt #27 (HarryS)] | nM | 11.6 |
| CCUCAAUCGUCGGCCGCCACUGGAUCAUGCGGAUACAUGAGGAUCACCCAUGUGGGUGUGGUACGCAGGACCGGGACAAGACCCG [#15 Same State - Tryptophan B] | nM | 579 |
| GAUCCACAUGAGGAUCACCCAUGUGAGGAUACCAGUACCAGAUCCUACCCUUGGCAGCCUAACCUUCAUUCAACACGAAUAAGAA [theeternabot_sameState_MS2_Theo_A_20] | nM | 16.7 |
| GUACAUGAGGAUCACCCAUGUAUAGUUGAAGGAGCGACCGGUGGGUCAGGUAGGUCGCAGCGCAUGGCGUCAACCCGUGUAUGCC [#1 Exclusion - Arginine A Attempt #27 (Inspired by Pi)] | nM | 24.8 |
| AUUAUCGUAGGUUAAAGUUUAGAAACUGAAGGAGCGUGGUAUUACACAGGUAGGUCGCAGAUUUUACAUGAGGAUCACCCAUGUU [JR_ExcArginiA_Sub010] | nM | 26.3 |
| GAUUGGAUUUGAAGGAGCGUCGAAAAUGGGUAAACAUGAGGAUCACCCAUGUAAAGGGAACGACAGGUAGGUCGCAAAUUUAAUC [AstromonsSSArgB#31] | nM | 148 |
| AUAUAUAUAUAGAAAUAUAUAUAUAUGUAACGAGGACCGGUACGGCCGCCACUCGUGCCGGUGAUAACAUGAGGAUCACCCAUGU [Ex_TrypA - Every engine approves!] | nM | 20.9 |
| AAGAAAACAUGAGCAAAGCUCAUGUGCGAAGGAGCGGCGGAAACGCCAGGUAGGUCGCGCACAUGAGCAUCAGCCAUGUGUAUCA [Omei Arginine B SS A v3] | nM | 76.9 |
| UUAACGAGCUGAAGGAGCGCUCCUCAACAACAUGAGGAUCACCCAUGUACACAUAAUAGGGAGCAGGUAGGUCGCAGCAGGAUGG [ss-argB-?] | nM | 23.4 |
| CUCGGAACAAUCGAUACCAGUUCUCAUGGAUUGCAGCAGUACAUGAGGAUCACCCAUGUAAACCCUUGGCAGCGAAGAACAAGAC [theeternabot_exclusion_MS2_Theo_B_18] | nM | 48.2 |
| GGCACCAGGAGAAGGAGCGUGAAGACAUGAGGAUCACCCAUGUAGAGGCCCGUACUGGGUUCGCAGGUAGGUCGCUCCUGGUGCC [#1 Same State - Arginine B Attempt #13 (HarryS)] | nM | 39.2 |
| AAAUGAAGGCGAAGGAGCGGGAACAUGAGGAUCACCCAUGUGUAUGUAUGUAGUCAUGUAUCUCAGGUAGGUCGCGCUGUUACAU [Exclusion Arginine B 2] | nM | 178 |
| UGGCAGUACAUGGGUUACUGCCAAGGUGAUACCAGCAUCGAAAGAUGCCCUUGGCAGCACCAACAUGAGGAUCACCCAUGUAAUA [(MT)''-(M)'-(T')-(Theo)-(Ms2)_Design1/22_8] | nM | 210 |
| UAUCCACAUGAGGAUCACCCAUGUUAGGAAGGAGCGGUGAAUGAACCAGGUAGGUCGCCUAGCUGAGGACCAUCGAUGGAUUCGU [Exclusion - Arginine A (Freestyle 15)] | nM | 25.5 |
| UUUACAUGAGGAUCACCCAUGUUCCAUGAUACCAGACAUGAAAAUGUCCCUUGGCAGCAUGAAUGAUUCAUAGGAUAAUUAUGGG [Medlanky] | nM | 116 |
